B1: TPTE2 peptide 92-107 (Phosphatidylinositol 3,4,5-trisphosphate 3-phosphatase TPTE2), 16-mer library wild type / TLN1 PTB (TLN1 Phosphotyrosine-binding (PTB) domain, residues 309-401) (parent)
chain 1: LADLIFTDSKLYIPLE
chain 2: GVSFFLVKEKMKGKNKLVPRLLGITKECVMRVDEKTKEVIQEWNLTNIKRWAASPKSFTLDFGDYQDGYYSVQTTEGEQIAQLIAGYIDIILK

# Variants of: B1
# assay: proteomic peptide phage display deep mutational scan (ProP-PD DMS): M13 P8 16-mer library selected against immobilised GST-tagged bait for four days (rounds), NGS of the eluted pools per day and pseudo-replica
# measurement_setup: with TLN1 PTB (TLN1 Phosphotyrosine-binding (PTB) domain, residues 309-401); bait immobilised on MaxiSorp plates (10 µg), library pre-cleared on GST, 2 h binding at 4 °C, five washes; one round per day, days 1-4; value from days 2 and 3; keep out of graded; scale: average fractional NGS count over selection days 2 and 3

variant_descriptor: chain 1 T7A
screen value: 4.1e-05
--
variant_descriptor: chain 1 F6P
screen value: 9.98e-05
--
variant_descriptor: chain 1 D3F
screen value: 9.05e-05
--
variant_descriptor: chain 1 I13M
screen value: 3.76e-05
--
variant_descriptor: chain 1 D8K
screen value: 2.8e-05
--
variant_descriptor: chain 1 T7F
screen value: 3.05e-05
--
variant_descriptor: chain 1 A2F
screen value: 2.74e-05
--
variant_descriptor: chain 1 P14M
screen value: 0
--
variant_descriptor: chain 1 K10V
screen value: 7.83e-05
--
variant_descriptor: chain 1 I13Q
screen value: 8.06e-05
--
variant_descriptor: chain 1 P14F
screen value: 0
--
variant_descriptor: chain 1 D8S
screen value: 4.41e-05
--
variant_descriptor: chain 1 I13H
screen value: 7.12e-05
--
variant_descriptor: chain 1 T7I
screen value: 3.48e-05
--
variant_descriptor: chain 1 T7E
screen value: 8.56e-05
--
variant_descriptor: chain 1 L11F
screen value: 0.000112
--
variant_descriptor: chain 1 F6M
screen value: 0
--
variant_descriptor: chain 1 D3A
screen value: 4.9e-05
--
variant_descriptor: chain 1 D3H
screen value: 0.000117
--
variant_descriptor: chain 1 P14R
screen value: 0
--
variant_descriptor: chain 1 T7R
screen value: 6.19e-05
--
variant_descriptor: chain 1 L11S
screen value: 3.91e-05
